# Tested on: CCRF S-180
# ASSAY_REMARKS: In vivo antitumor activity against mouse S180 cells
# Type: functional, organism-based
Calls of active or inactive are those of the source. How the calls were made is not given here.
Classes used: Yes for active, No for inactive

INSERT INTO results (compound, qualitative_label) VALUES
  ('CCOc1ccc(-c2cc(=O)c3c(OC)c(OC)c(OC)c(OC)c3o2)cc1', 'No'),
  ('O=C1CC(c2ccccc2)Oc2ccc(Cl)cc21 (stereo unspecified)', 'No'),
  ('COc1cc(OC)cc(-c2cc(=O)c3c(OC)c(OC)c(OC)c(OC)c3o2)c1', 'No'),
  ('COc1cc(O)c2c(=O)c(O)c(-c3ccc(O)c(O)c3)oc2c1', 'No'),
  ('O=c1cc(-c2ccccc2)oc2cccc(O)c12 [5-HYDROXYFLAVONE]', 'No'),
  ('COc1cc2c(c(O[C@@H]3O[C@H](CO)[C@@H](O)[C@H](O)[C@H]3O)c1)C(=O)CC(c1ccc(O)cc1)O2 (stereo partly specified)', 'No'),
  ('COc1ccc(-c2coc3cc(OC)c(OC)c(OC)c3c2=O)cc1', 'No'),
  ('COc1cc(O)c2c(=O)c(OC)c(-c3ccc(OC)c(OC)c3)oc2c1', 'No'),
  ('O=c1c(O)c(-c2ccc(Cl)cc2)oc2cc(O)ccc12', 'No'),
  ('O=c1cc(-c2cccc([N+](=O)[O-])c2)oc2ccccc12', 'No'),
  ('COc1cc(C)cc2c1OC(c1ccccc1)CC2=O.Cl (stereo unspecified)', 'No'),
  ('O=c1cc(-c2ccc(O)cc2)oc2cc(O[C@@H]3O[C@H](CO)[C@@H](O)[C@H](O)[C@H]3O)cc(O)c12', 'No'),
  ('COc1ccc(-c2cc(=O)c3cc(OC)c(OC)c(OC)c3o2)cc1', 'No'),
  ('Cc1cc(C)c(-c2oc3ccc(Cl)cc3c(=O)c2Cl)c(C)c1', 'Yes'),
  ('COc1ccc2c(c1)C(=O)CC(c1ccccc1)O2 (stereo unspecified)', 'Yes'),
  ('COc1ccc(-c2cc(=O)c3c(O)cc(O)cc3o2)cc1', 'No'),
  ('O=C1CC(c2ccc(Cl)cc2)Oc2ccc(Cl)cc21 (stereo unspecified)', 'No'),
  ('O=c1cc(-c2ccccc2)oc2c(F)cc(F)cc12', 'No'),
  ('COc1ccc(-c2cc(=O)c3c(OC)c(OC)c(OC)cc3o2)cc1', 'No'),
  ('O=C1c2ccc(O)cc2OC(c2ccc(O)c(O)c2)C1O (stereo unspecified)', 'No'),
  ('C[C@@H]1O[C@@H](OC[C@H]2O[C@@H](Oc3cc(O)c4c(c3)OC(c3ccc(O)cc3)CC4=O)[C@H](O)[C@@H](O)[C@@H]2O)[C@H](O)[C@H](O)[C@H]1O (stereo partly specified)', 'No');
